Catalogue of melting point readings, one per entry.

Check out these entries, answers already filled in.
1. O=C(CC(F)(F)F)NCC(=O)n1ccc2cc(/C=C/C(c3cc(Cl)c(F)c(Cl)c3)C(F)(F)F)ccc21 (stereo unspecified); 121 to 126 °C
2. CC(C(N)=O)c1ccc2c(c1)C(=O)Cc1ccc(Cl)cc1S2 (stereo unspecified); 207 to 208 °C
3. NC[C@@H]1CC[C@H](C(=O)O)C1 (relative stereo); 186 to 188 °C

Query block: Request the reported melting point associated with O=C1Nc2ccc(Cl)c(Cl)c2C1=O
Result block: 239 to 240 °C

Query block: How about O=c1c2ccc(F)cc2nc(C(S)c2ncnc3[nH]cnc23)n1-c1ccccc1Cl (stereo unspecified) ?
Result block: 151 to 154 °C

Query block: How about COc1cccc(NS(=O)(=O)c2ccc(N)cc2)c1 ?
Result block: 142 to 145 °C

====

attribute.measured: melting point

1. Cc1ccc(S(=O)(=O)Oc2cc(Cl)c(C=O)c(Cl)c2)cc1; 77 to 80 °C
2. CCOC(=O)c1c(C(F)(F)F)oc(C(F)(F)F)c(C(=O)OCC)c1=O; 90 to 91 °C

Now take the following compound into account.
Query block: Request the reported melting point associated with COC(=O)C(Oc1ccc(C(F)(F)F)cc1)c1ccc(OCCCOc2ccc(Cl)cc2)cc1 (stereo not drawn)
Result block: 83 to 84 °C

====

Catalogue of melting point readings, one per entry.

Check out these entries, answers already filled in.
1. COC(=O)C(=CC(=CN(C)C)c1cc(OCc2ccccc2)ccc1[N+](=O)[O-])[N+](=O)[O-]; 158 to 165 °C
2. COCCCOc1cc(C[C@@H](C(=O)N2C(=O)OC[C@H]2Cc2ccccc2)C(C)C)ccc1OC; 55 to 56 °C

Query block: Request the reported melting point associated with CC(C)c1cc(Oc2ccc(Cl)cc2)nc(C(C)C)c1NC(=S)NC(C)(C)C
Result block: 165 to 167 °C

====

attribute.measured: melting point

1. CCOc1cccc(NC(=O)Nc2ccc3c(c2)CCN(C(=O)Nc2ccc(OCCO)cc2Cl)C3)c1; 148 to 150 °C
2. COc1ccc(C[C@@H](NC(=O)OCc2ccccc2)[C@H](O)C(=O)O)cc1; 160 to 162 °C

Query block: Request the reported melting point associated with CC(C)CCn1cc(C(=O)Nc2nccs2)c2ccc(Cl)cc21
Result block: 179 to 180 °C

====

Catalogue of melting point readings, one per entry.

1. O=C(NCc1ccc(F)cc1)c1ccnc(N2CCN(Cc3ccncc3)C2=O)c1; 161 to 163 °C
2. CC(C)c1cc(-c2ccc(F)c3ccccc23)nc(N(S(C)(=O)=O)S(C)(=O)=O)n1; 144 °C
3. OC1CC=CCC1N1CCN(C2CC=CCC2O)CC1 (centres undefined); 207 to 209 °C

Query block: Request the reported melting point associated with CCOC(=O)C1=Cc2cc(-c3ccc(OCC)cc3)ccc2OCC1
Result block: 124 to 127 °C

====

Catalogue of melting point readings, one per entry.

1. CNC(=S)NCc1cc(-c2ccc(Cl)cc2)no1; 135 °C
2. COc1cc2c(cc1OC)-c1c(-c3ccccc3)c(-c3cc(C)c(O)c(C)c3)c(C)n1CC2; 210 to 214 °C

Query block: Request the reported melting point associated with Cc1cc(-n2ccnc2)c2cccc(OCc3c(Cl)ccc(S(=O)(=O)N4CCC[C@H]4C(=O)NCC4CCN(C(=O)OC(C)(C)C)CC4)c3Cl)c2n1
Result block: 100 °C

Query block: How about COc1cncc(-c2cccc(OC3SCC(OC(C)=O)C(OC(C)=O)C3OC(C)=O)c2)c1 (centres undefined) ?
Result block: 167 °C

Query block: How about FC(F)(F)CSc1nc2cc(Cl)ccc2[nH]1 ?
Result block: 127 to 129 °C

Query block: How about CNc1ncnc2c1ncn2Cc1c(Cl)cccc1Cl ?
Result block: 219 to 220 °C

Query block: How about COCc1cccc(Cl)c1NC(=O)CC1c2ccccc2Oc2ccccc21 ?
Result block: 184 to 185 °C

Query block: How about O=C(CSCCOc1ccccc1)c1ccc2[nH]c3ncc(Cl)cc3c2c1 ?
Result block: 167 to 168 °C

Query block: How about O=C1N(Cc2ccc(F)cc2Cl)c2ccccc2C12COc1cc3c(cc12)OCO3 (centres undefined) ?
Result block: 174 to 175 °C

Query block: How about CC1Nc2ccc3c(c2N1C)OC(CN1CC=C(c2c[nH]c4ccccc24)CC1)CO3 (centres undefined) ?
Result block: 186 to 188 °C

Query block: How about CC(C)(C)NCC(O)COc1ccccc1-c1nc(C(F)(F)F)c[nH]1 (centres undefined) ?
Result block: 105 to 107 °C

Query block: How about Nc1nc(N)nc(-c2ccc(-c3ccccc3)s2)n1 ?
Result block: > 250 °C

Query block: How about CCCCc1oc2ccccc2c1/C=N/OCCCOc1ccc(C(=O)O)c(NC(=O)c2ccc(C(C)(C)C)cc2)c1 ?
Result block: 181 to 182 °C

Query block: How about Cc1[nH]n(C2CCCC2C)c2nc(-c3ccncc3)nc(=O)c1-2 (centres undefined) ?
Result block: 290 to 291 °C

Query block: How about O=C(Nc1ccccc1Br)OCc1cn(-c2cc3cc(C(=O)O)c(=O)[nH]c3cc2C(F)(F)F)cn1 ?
Result block: 145 to 147 °C

Query block: How about CCCCCCCCCCCC(=O)NCCCCCC(=O)O ?
Result block: 85 to 86 °C

Query block: How about CN1NC(Oc2cc(F)ccc2[N+](=O)[O-])=CC1C(F)(F)F (centres undefined) ?
Result block: 68 to 70 °C

Query block: How about O=C(c1ccc2nonc2c1)N1CC2CCC1CC2 ?
Result block: 138 to 139 °C

Query block: How about N#CCc1ccc(OCc2ccccc2)cc1OCc1ccccc1 ?
Result block: 99 to 100 °C

Query block: How about COc1ccc(N2CCOCC2)c2sc(NC(=O)N(C)[C@H]3CC[C@@H](OC)CC3)nc12 ?
Result block: 198 to 200 °C

Query block: How about ClCc1nnc2n1-c1ccc(Cl)cc1C(c1ccccc1Cl)=NC2 ?
Result block: 195 to 198 °C

Query block: How about O=c1ccsc2c3ccccc3n(-c3ccccc3[N+](=O)[O-])c12 ?
Result block: 207 to 208 °C

Query block: How about NNC(=O)CCc1cccc(C(F)(F)F)c1 ?
Result block: 80 to 81 °C

Query block: How about COc1cc(C2CCN(C[C@H](Oc3ncc4ccc(-c5ccccc5N(C)S(C)(=O)=O)n4n3)C(F)(F)F)CC2)ccc1N ?
Result block: 85 to 96 °C

Query block: How about N#Cc1ccc(-c2ccc(OC(F)(F)F)c(CNC3CCN(C(=O)C(N)=O)CC3c3ccccc3)c2)c(F)c1 (centres undefined) ?
Result block: 142 to 144 °C

Query block: How about N#Cc1ccc(CC23CCCN2C(=O)N(Cc2cc(Cl)cc(Cl)c2)C3=O)cc1 (centres undefined) ?
Result block: 124 °C

Query block: How about Cc1cc2n(C)c(=O)c3cnccc3n2n1 ?
Result block: > 300 °C

These entries and their values trace back to a melting point compilation (Tetko et al.; mined from patent text by program, amines drawn as free bases though some values may be those of a salt).
